- System: hiPSC-CMs
- assay comment: Cardiotoxicity assay in hiPSC-CMs (voltage transients, arrhythmia, contractility)
- reported conditions: Table 4
recorded metric: Cardiotoxicity (overall maximum toxic dose) (µM)
Please state the figure in µM; there is no need to write the unit.

The examples below pair each entry with its known result.
- compound: "C#Cc1cc(C(=O)Nc2ccc(CN3CCN(C)CC3)c(C(F)(F)F)c2)ccc1OC"
  measured result: 1.34
- compound: "C#Cc1cc(C(=O)Nc2ccc(CN3CCN(C)CC3)c(C(F)(F)F)c2)ccc1C"
  measured result: 1.13

Now let's try a different one.
Input Cc1ccc(C(=O)Nc2ccc(CN3CCN(C)CC3)c(C(F)(F)F)c2)cc1 [Compound 21a] , output reported Cardiotoxicity (overall maximum toxic dose).
1.45

###

Entries and their Cardiotoxicity (overall maximum toxic dose)
- Test system: hiPSC-CMs
- assay comment: Cardiotoxicity assay in hiPSC-CMs (voltage transients, arrhythmia, contractility)
- reported conditions: Table 5
Your answer is read as µM, so omit the unit and give the number.

Example compounds with recorded Cardiotoxicity (overall maximum toxic dose):
- compound: "O=C(Nc1ccc(OC(F)(F)Cl)cc1)c1cnc(N2CC[C@@H](O)C2)c(-c2ccn[nH]2)c1 [Asciminib]"
  measured result: 4.81
- compound: "Cc1ccc(C(=O)Nc2ccc(CN3CCN(C)CC3)c(C(F)(F)F)c2)cc1C#Cc1cnc2cccnn12 [Ponatinib]"
  measured result: 0.47

Report Cardiotoxicity (overall maximum toxic dose) for Cc1cn(-c2cc(NC(=O)c3ccc(C)c(Nc4nccc(-c5cccnc5)n4)c3)cc(C(F)(F)F)c2)cn1 [Nilotinib]
1.12

Data origin: patent US20240199626A1
